tested on: RXF 393 renal; assay: NCI tumour cell line growth inhibition, 48 h
valueType: TGI (µM)
All answers are understood in µM, so give the number only.

Exam item: # TGI lookup, item c1cnn2ncc(-c3ccnc(NCCCN4CCOCC4)n3)c2c1
Marked response: 7.78

Exam item: Given the compound COC1/C=C/C(C)C(C(C)C(OC)C(C)CCC(=O)C(C)C(C/C=C/N(C)C=O)OC)OC(=O)C=CC2OC2(C)CC(OC)C(OC)C2=CC(=O)O[C@@H](C(C)C(OC)CC(OC)/C=C/C(C)C(O)C1)[C@H]2O (some centres undefined) , what is its reported TGI?
Marked response: 0.0473
